Source of measurements: ChEMBL document CHEMBL3259718

Assay: Retention time of the compound by HPLC analysis
Format: physicochemical
MEASURED ATTRIBUTE: Retention_time (min)
Numbers only, in min.

Some solved cases for reference:
[
  {
    "SUBSTANCE": "Ac-RPRLAAKGPL-NH2",
    "EXPERIMENTAL RESULT": 13.64
  },
  {
    "SUBSTANCE": "Ac-RPRAAAKGPL-NH2",
    "EXPERIMENTAL RESULT": 11.33
  },
  {
    "SUBSTANCE": "Ac-APRLSHKGPL-NH2",
    "EXPERIMENTAL RESULT": 13.2
  },
  {
    "SUBSTANCE": "Ac-RPRLAAKGAL-NH2",
    "EXPERIMENTAL RESULT": 12.37
  },
  {
    "SUBSTANCE": "Ac-RPRLSHKGPM-NH2",
    "EXPERIMENTAL RESULT": 11.47
  },
  {
    "SUBSTANCE": "Ac-RPRLSHKGPL-NH2",
    "EXPERIMENTAL RESULT": 12.43
  },
  {
    "SUBSTANCE": "Ac-RARLAAKGPL-NH2",
    "EXPERIMENTAL RESULT": 13.23
  },
  {
    "SUBSTANCE": "Ac-RPRLAAAGPL-NH2",
    "EXPERIMENTAL RESULT": 14.93
  },
  {
    "SUBSTANCE": "Ac-RPKFAAKGPL-NH2",
    "EXPERIMENTAL RESULT": 13.91
  },
  {
    "SUBSTANCE": "Ac-RPRLSHKGPV-NH2",
    "EXPERIMENTAL RESULT": 10.84
  }
]

Look at each substance and report its Retention_time.
1. H-QRPRLSHK-NH2
2. Ac-RPALAAKGPL-NH2
3. H-QRPRLSH-NH2
4. Ac-KPRLAAKGPL-NH2

[12.94, 14.15, 13.49, 13.08]

Look at each substance and report its Retention_time.
1. H-QRPRLS-NH2
2. Ac-RPRLSHKGPF-NH2

15.93
13.43
